- TARGET_ENTITY: hMCHR1 (Homo sapiens)
- Construct: purchased PerkinElmer, Inc., Waltham, USA; host or cells: CHO-K1 cell membranes
- Sequence (Q99705 whole entry): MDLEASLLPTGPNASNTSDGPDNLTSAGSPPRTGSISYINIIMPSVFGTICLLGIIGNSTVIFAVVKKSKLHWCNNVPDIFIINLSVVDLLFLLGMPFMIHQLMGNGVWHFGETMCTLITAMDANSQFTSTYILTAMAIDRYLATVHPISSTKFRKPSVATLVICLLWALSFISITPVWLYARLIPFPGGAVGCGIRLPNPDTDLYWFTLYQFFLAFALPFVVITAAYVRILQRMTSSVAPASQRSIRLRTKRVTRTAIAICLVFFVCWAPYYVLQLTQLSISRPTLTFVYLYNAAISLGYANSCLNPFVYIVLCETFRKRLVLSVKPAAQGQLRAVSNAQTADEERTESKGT
- ASSAY_NOTES: Competitive binding studies: displacement of specific [125I]MCH binding on CHO-K1 cell membranes
- CONDITION_SET: displacement of 0.1 nM [125I]MCH, CHO-K1 cell membranes expressing hMCHR1, mean ± SEM, three independent experiments
pIC50: −log10 of the molar value.
Entries annotated with measured pIC50

| COMPOUND | pIC50 |
| --- | --- |
| COCC1=C(C(=O)OC)[C@H](c2ccc(F)c(F)c2)N(C(=O)NCCCN2CCC(c3cccc(NC(C)=O)c3)CC2)C(=O)N1 (racemic) [(±)-SNAP-7941] | 8.25 |
| COCC1=C(C(=O)OCCF)[C@H](c2ccc(F)c(F)c2)N(C(=O)NCCCN2CCC(c3cccc(NC(C)=O)c3)CC2)C(=O)N1 [FE@SNAP] | 7.84 |

---

- TARGET_ENTITY: hMCHR1 (Homo sapiens)
- Construct: purchased PerkinElmer, Inc., Waltham, USA; host or cells: CHO-K1 cell membranes
- ASSAY_NOTES: Competitive binding studies: displacement of specific [125I]MCH binding on CHO-K1 cell membranes

| COMPOUND | IC50 |
| --- | --- |
| COCC1=C(C(=O)OC)[C@H](c2ccc(F)c(F)c2)N(C(=O)NCCCN2CCC(c3cccc(NC(C)=O)c3)CC2)C(=O)N1 [(+)-SNAP-7941] | 7.7 nM |
